procedure details: Half life in female mouse at 1 mg/kg, iv by reverse phase chromatography
Assay type: ADME, organism-based
setup conditions: in vivo
measure: half-life (h)
Write the number in h without appending the unit.

Answer with the recorded half-life of C[C@@]1(O)[C@H](O)[C@@H](CO)O[C@H]1c1coc2c(N)ncnc12 only.
22.3

----------
procedure details: Volume of distribution in female mouse at 1 mg/kg, iv by reverse phase chromatography
Type: ADME, organism-based
setup conditions: in vivo
measure: Vd (L/kg)
Write the number in L/kg without appending the unit.

Answer with the recorded Vd of C[C@@]1(O)[C@H](O)[C@@H](CO)O[C@H]1c1coc2c(N)ncnc12 only.
22.4

----------
procedure details: Metabolic stability in cryopreserved rat hepatocyte assessed as half life in presence of NADPH
Format: ADME, cell-based
setup conditions: cryopreserved hepatocytes
measure: half-life

Answer with the recorded half-life of C[C@@]1(O)[C@H](O)[C@@H](CO)O[C@H]1c1coc2c(N)ncnc12 only.
> 1 h

----------
procedure details: Tmax in Sprague-Dawley rat at 1 mg/kg, iv by reverse phase chromatography
Assay type: ADME, organism-based
setup conditions: in vivo
measure: Tmax (min)
Write the number in min without appending the unit.

Answer with the recorded Tmax of C[C@@]1(O)[C@H](O)[C@@H](CO)O[C@H]1c1coc2c(N)ncnc12 only.
4.8

----------
procedure details: Clearance in Sprague-Dawley rat at 1 mg/kg, iv by reverse phase chromatography
Assay type: ADME, organism-based
setup conditions: in vivo
measure: clearance (L/h/kg)
Write the number in L/h/kg without appending the unit.

Answer with the recorded clearance of C[C@@]1(O)[C@H](O)[C@@H](CO)O[C@H]1c1coc2c(N)ncnc12 only.
1.06

----------
System: Hepatitis C virus
procedure details: Antiviral activity against Hepatitis C virus infected in Ava5 cells assessed as inhibition of viral RNA replication incubated for 72 hrs by RT-PCR analysis
Format: functional, organism-based, Hepacivirus hominis
setup conditions: Ava5, 72 h
measure: pIC50
Please note pIC50 is a logarithmic value: minus log10 of concentration in mol/L. Answer with that number alone.

Report pIC50 from Hepatitis C virus testing of C[C@@]1(O)[C@H](O)[C@@H](COP(=O)(O)OP(=O)(O)OP(=O)(O)O)O[C@H]1c1coc2c(N)ncnc12
5.30

----------
procedure details: Tmax in female mouse at 5 mg/kg, po by reverse phase chromatography
Assay type: ADME, organism-based
setup conditions: in vivo
measure: Tmax

Answer with the recorded Tmax of C[C@@]1(O)[C@H](O)[C@@H](CO)O[C@H]1c1coc2c(N)ncnc12 only.
30 min

----------
procedure details: Metabolic stability in dog liver microsome assessed as half life in presence of NADPH
Assay type: ADME, Canis lupus familiaris
setup conditions: liver microsomes
measure: half-life

Answer with the recorded half-life of C[C@@]1(O)[C@H](O)[C@@H](CO)O[C@H]1c1coc2c(N)ncnc12 only.
> 1.67 h

----------
procedure details: Metabolic stability in human liver microsome assessed as half life in presence of NADPH
Assay type: ADME
setup conditions: liver microsomes
measure: half-life

Answer with the recorded half-life of C[C@@]1(O)[C@H](O)[C@@H](CO)O[C@H]1c1coc2c(N)ncnc12 only.
> 1.67 h

----------
Test system: Hepatitis C virus
procedure details: Antiviral activity against HCV infected in human Huh-7 cells assessed as inhibition of viral RNA replication incubated for 24 hrs by ribonuclease protection assay
Format: functional, organism-based, Hepacivirus hominis
setup conditions: Huh-7, 24 h
measure: pEC50
Please note pEC50 is a logarithmic value: minus log10 of concentration in mol/L. Answer with that number alone.

Answer with the recorded pEC50 of C[C@@]1(O)[C@H](O)[C@@H](CO)O[C@H]1n1cnc2c(N)ncnc21 only.
6.52
